experiment: Half life in iv dosed rat; type: ADME, organism-based; conditions: in vivo
Mark each entry Criterion met if its half-life sits below 60 min, and Criterion not met for all others.

Cn1c2c(c(=O)n1Cc1ccccc1C(F)(F)F)[C@H]1CC[C@]2(C)C1(C)C | Criterion not met
CC1(C)[C@@H]2CC[C@@]1(C)c1c2c(=O)n(-c2ccccc2)n1Cc1ccccc1 | Criterion met
Cn1c2c(c(=O)n1-c1ccccc1Cl)[C@H]1CC[C@]2(C)C1(C)C | Criterion not met
Cn1c2c(c(=O)n1-c1cc(Cl)ccc1Cl)[C@H]1CC[C@]2(C)C1(C)C | Criterion not met
CC1(C)[C@@H]2CC[C@@]1(C)c1c2c(=O)n(-c2ccc(F)cc2F)n1Cc1ccccc1 | Criterion met

query: In the record for Cn1c2c(c(=O)n1-c1ccccc1)[C@H]1CC[C@]2(C)C1(C)C , is half-life less than 60 min?
result: Criterion not met

====

# solubility kinetic per entry
experiment: Kinetic aqueous solubility of the compound at pH 6.5; type: physicochemical; details: read-out: Kinetic_solubility
Response body: numeric value in µg/mL, unit text excluded.

Example cases with answers are listed next.
Cn1c2c(c(=O)n1-c1ccccc1)[C@H]1CC[C@]2(C)C1(C)C | 169
Cn1c2c(c(=O)n1Cc1ccccc1C(F)(F)F)[C@H]1CC[C@]2(C)C1(C)C | 246

Quick note, solubility kinetic for Cn1c2c(c(=O)n1-c1cc(Cl)ccc1Cl)[C@H]1CC[C@]2(C)C1(C)C landed at 50

Quick note, solubility kinetic for CC1(C)[C@@H]2CC[C@@]1(C)c1c2c(=O)n(-c2ccccc2)n1Cc1ccccc1 landed at 171

Quick note, solubility kinetic for CC1(C)[C@@H]2CC[C@@]1(C)c1c2c(=O)n(-c2ccc(F)cc2F)n1Cc1ccccc1 landed at 82

====

assay: Clearance in iv dosed rat; type: ADME, organism-based; details: in vivo
# clearance per entry
Response body: numeric value in mL/min/kg, unit text excluded.

Example cases with answers are listed next.
Cn1c2c(c(=O)n1Cc1ccccc1C(F)(F)F)[C@H]1CC[C@]2(C)C1(C)C | 34.8
Cn1c2c(c(=O)n1-c1ccccc1C(F)(F)F)[C@H]1CC[C@]2(C)C1(C)C | 31.8
Cn1c2c(c(=O)n1-c1ccccc1)[C@H]1CC[C@]2(C)C1(C)C | 25.7

Quick note, clearance for CC1(C)[C@@H]2CC[C@@]1(C)c1c2c(=O)n(-c2ccccc2)n1Cc1ccccc1 landed at 57.5

Quick note, clearance for Cn1c2c(c(=O)n1-c1cc(Cl)ccc1Cl)[C@H]1CC[C@]2(C)C1(C)C landed at 40.2

Quick note, clearance for CC1(C)[C@@H]2CC[C@@]1(C)c1c2c(=O)n(-c2ccc(F)cc2F)n1Cc1ccccc1 landed at 29

Quick note, clearance for Cn1c2c(c(=O)n1-c1ccccc1Cl)[C@H]1CC[C@]2(C)C1(C)C landed at 29.3

====

test: Effective permeability of the compound at pH 6.5 by PAMPA; assay type: physicochemical; details: read-out: Peff
Mark each entry t if its Papp sits below 9 ×10⁻⁶ cm/s, and f for all others.

Worked cases, answers included:
Cn1c2c(c(=O)n1Cc1ccccc1C(F)(F)F)[C@H]1CC[C@]2(C)C1(C)C | t
Cn1c2c(c(=O)n1-c1cc(Cl)ccc1Cl)[C@H]1CC[C@]2(C)C1(C)C | t
Cn1c2c(c(=O)n1-c1ccccc1Cl)[C@H]1CC[C@]2(C)C1(C)C | f
Cn1c2c(c(=O)n1-c1ccccc1)[C@H]1CC[C@]2(C)C1(C)C | f
CC1(C)[C@@H]2CC[C@@]1(C)c1c2c(=O)n(-c2ccc(F)cc2F)n1Cc1ccccc1 | f

Consider the additional compound presented here.
query: In the record for Cn1c2c(c(=O)n1-c1ccccc1C(F)(F)F)[C@H]1CC[C@]2(C)C1(C)C , is Papp less than 9 ×10⁻⁶ cm/s?
result: f

====

test: Cmax in rat at 50 mg/kg, po; format: ADME, organism-based; design: dose 50 mg/kg, route oral; conditions: in vivo
# Cmax per entry
Response body: numeric value in ng/mL, unit text excluded.

CC1(C)[C@@H]2CC[C@@]1(C)c1c2c(=O)n(-c2ccccc2)n1Cc1ccccc1 | 648
CC1(C)[C@@H]2CC[C@@]1(C)c1c2c(=O)n(-c2ccc(F)cc2F)n1Cc1ccccc1 | 2280
Cn1c2c(c(=O)n1-c1ccccc1Cl)[C@H]1CC[C@]2(C)C1(C)C | 2840
Cn1c2c(c(=O)n1-c1cc(Cl)ccc1Cl)[C@H]1CC[C@]2(C)C1(C)C | 280

Switching to the query record.
Quick note, Cmax for Cn1c2c(c(=O)n1Cc1ccccc1C(F)(F)F)[C@H]1CC[C@]2(C)C1(C)C landed at 294

====

experiment: Volume of distribution at steady state in iv dosed rat; type: ADME, organism-based; conditions: in vivo, read-out: Vdss
# Vd per entry
Response body: numeric value in L/kg, unit text excluded.

Cn1c2c(c(=O)n1-c1ccccc1C(F)(F)F)[C@H]1CC[C@]2(C)C1(C)C | 1.2
Cn1c2c(c(=O)n1-c1ccccc1Cl)[C@H]1CC[C@]2(C)C1(C)C | 2.7
Cn1c2c(c(=O)n1Cc1ccccc1C(F)(F)F)[C@H]1CC[C@]2(C)C1(C)C | 2
Cn1c2c(c(=O)n1-c1ccccc1)[C@H]1CC[C@]2(C)C1(C)C | 1.4
CC1(C)[C@@H]2CC[C@@]1(C)c1c2c(=O)n(-c2ccccc2)n1Cc1ccccc1 | 2.3

Quick note, Vd for CC1(C)[C@@H]2CC[C@@]1(C)c1c2c(=O)n(-c2ccc(F)cc2F)n1Cc1ccccc1 landed at 1

Quick note, Vd for Cn1c2c(c(=O)n1-c1cc(Cl)ccc1Cl)[C@H]1CC[C@]2(C)C1(C)C landed at 4.6

====

test: Tmax in po dosed rat; type: ADME, organism-based; details: in vivo
# Tmax per entry
Response body: numeric value in min, unit text excluded.

Example cases with answers are listed next.
Cn1c2c(c(=O)n1-c1cc(Cl)ccc1Cl)[C@H]1CC[C@]2(C)C1(C)C | 30
Cn1c2c(c(=O)n1-c1ccccc1C(F)(F)F)[C@H]1CC[C@]2(C)C1(C)C | 42
CC1(C)[C@@H]2CC[C@@]1(C)c1c2c(=O)n(-c2ccc(F)cc2F)n1Cc1ccccc1 | 138
Cn1c2c(c(=O)n1-c1ccccc1)[C@H]1CC[C@]2(C)C1(C)C | 30
Cn1c2c(c(=O)n1-c1ccccc1Cl)[C@H]1CC[C@]2(C)C1(C)C | 60
Cn1c2c(c(=O)n1Cc1ccccc1C(F)(F)F)[C@H]1CC[C@]2(C)C1(C)C | 48

Switching to the query record.
Quick note, Tmax for CC1(C)[C@@H]2CC[C@@]1(C)c1c2c(=O)n(-c2ccccc2)n1Cc1ccccc1 landed at 192

====

# pIC50 per entry
molecular target: 11-beta-hydroxysteroid dehydrogenase 1 (Rattus norvegicus, UniProt P16232)
Sequence (P16232 whole entry): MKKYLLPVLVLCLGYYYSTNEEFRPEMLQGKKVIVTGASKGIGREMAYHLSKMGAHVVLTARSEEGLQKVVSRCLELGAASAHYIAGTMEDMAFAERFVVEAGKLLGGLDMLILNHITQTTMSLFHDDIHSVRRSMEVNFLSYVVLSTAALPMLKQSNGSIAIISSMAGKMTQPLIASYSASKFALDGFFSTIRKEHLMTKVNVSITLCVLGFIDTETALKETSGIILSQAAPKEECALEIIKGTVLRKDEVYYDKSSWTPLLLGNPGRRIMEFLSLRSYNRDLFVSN
FYI, pIC50 means -log10 of a concentration in mol per litre.

Cn1c2c(c(=O)n1-c1ccccc1)[C@@H]1CC[C@@]2(C)C1(C)C | 6.94
Cn1c2c(c(=O)n1-c1ccccc1Cl)[C@H]1CC[C@]2(C)C1(C)C | 7.41

Switching to the query record.
Sample Cn1c2c(c(=O)n1-c1cc(Cl)ccc1Cl)[C@H]1CC[C@]2(C)C1(C)C , system: 11-beta-hydroxysteroid dehydrogenase 1 (Rattus norvegicus, UniProt P16232). Its pIC50 is 8.30

====

experiment: Cmax in rat at 20 mg/kg, po; type: ADME, organism-based; parameters: dose 20 mg/kg, route oral; settings: in vivo
# Cmax per entry
Response body: numeric value in ng/mL, unit text excluded.

Cn1c2c(c(=O)n1-c1ccccc1)[C@H]1CC[C@]2(C)C1(C)C | 335

Quick note, Cmax for Cn1c2c(c(=O)n1-c1ccccc1C(F)(F)F)[C@H]1CC[C@]2(C)C1(C)C landed at 2150

====

test: Clearance in human liver microsomes at 1 uM; format: ADME; conditions: read-out: CLH
METRIC NAME: microsomal CLint at 1 µM (µL/min/mg)
Response body: numeric value in µL/min/mg, unit text excluded.

Example cases with answers are listed next.
Cn1c2c(c(=O)n1-c1ccccc1C(F)(F)F)[C@H]1CC[C@]2(C)C1(C)C | 68
Cn1c2c(c(=O)n1-c1cc(Cl)ccc1Cl)[C@H]1CC[C@]2(C)C1(C)C | 170
CC1(C)[C@@H]2CC[C@@]1(C)c1c2c(=O)n(-c2ccccc2)n1Cc1ccccc1 | 645
Cn1c2c(c(=O)n1-c1ccccc1)[C@H]1CC[C@]2(C)C1(C)C | 3.6
Cn1c2c(c(=O)n1Cc1ccccc1C(F)(F)F)[C@H]1CC[C@]2(C)C1(C)C | 604
Cn1c2c(c(=O)n1-c1ccccc1Cl)[C@H]1CC[C@]2(C)C1(C)C | 197

Switching to the query record.
Quick note, microsomal CLint at 1 µM for CC1(C)[C@@H]2CC[C@@]1(C)c1c2c(=O)n(-c2ccc(F)cc2F)n1Cc1ccccc1 landed at 582
